- MEASUREMENT_CONDITIONS: method [a]: pH 2.7; Table 3, formula (V)
So I've got a bunch of compounds here, and I need their LogP values.

A selection of reference data follows.
>>> print(df.to_string())
                                   compound  readout_name       val
0   CC(C)(C)C(=O)Cc1cccnc1Cl [Example V-16]          LogP  2.34^[a]
1     CC(C)(C)C(=O)Cc1cccnc1 [Example V-19]          LogP      0.41
2  CC(C)(C)C(=O)Cc1ccc(Cl)nc1 [Example V-15]          LogP  2.47^[a]
3  CC(C)(C)C(=O)Cc1cnc2ccccc2c1 [Example V-14]          LogP  1.60^[a]
4  CC(C)(C)C(=O)Cc1ncc(Cl)cc1Cl [Example V-13]          LogP  3.33^[a]
5  CCC(C)(CC)C(=O)Cc1ccncc1Cl [Example V-17]          LogP  3.04^[a]
6  O=C(Cc1ccc(Cl)nc1)C1(Cl)CC1 [Example V-6]          LogP      2.34
7  O=C(Cc1cccnc1Cl)C(CF)(CF)CF [Example V-25]          LogP  1.98^[a]
8     CC(C)(C)C(=O)Cc1ccncc1 [Example V-20]          LogP      0.35

Please find the next compound below.
Exam item: Quick check: LogP of CC(C)C(C)(C)C(=O)Cc1ccncc1Cl [Example V-18] ?
Marked response: 3.00^[a]

----------
So I've got a bunch of molecules here, and I need their LogP values.
- MEASUREMENT_CONDITIONS: pH 2.7
Marks after values point to notes of the source that are not given here.

A selection of reference data follows.
                                   molecule       val
0  OC(Cc1cccnc1F)(Cn1cncn1)C1(Cl)CC1 (racemic)  1.64^[a]
1  CCC(C)(C)C(O)(Cc1ccncc1F)Cn1ncnc1S (centres unmarked)  2.14^[a]
2  CC(C)(C)C(O)(Cc1ccc2ccccc2n1)Cn1cncn1 (racemic)  1.51^[a]
3  CC(C)(Oc1ccc(F)cc1)C(O)(Cc1ccncc1Cl)Cn1cncn1 (centres unmarked)  2.48^[a]

Please find the next molecule below.
Exam item: Quick check: LogP of Cc1ncc(CC(O)(Cn2cncn2)C(C)(C)C)nc1Cl (racemic) ?
Marked response: 2.10^[a]

----------
- MEASUREMENT_CONDITIONS: method [a]: pH 2.7; Table 4, formula (XII)
So I've got a bunch of molecules here, and I need their LogP values.

                                   molecule  readout_name       val
0  CCC(C)(C)C1(Cc2ccncc2F)CO1 (stereo not drawn)          LogP  2.76^[a]
1  CC(C)(C)C1(Cc2ccnc(Cl)c2)CO1 (stereo not drawn)          LogP  3.06^[a]
2  CC(C)(C)C1(Cc2c(Cl)cncc2Cl)CO1 (stereo not drawn)          LogP  3.89^[a]

Report LogP for each item below.
1. CCC(C)(C)C1(Cc2ccncc2Cl)CO1 (stereo not drawn)
2. CCCC(C)(C)C1(Cc2ccncc2Cl)CO1 (stereo not drawn)
3. CCC(C)(C)C1(Cc2ccnc(Cl)c2)CO1 (stereo not drawn)
4. CC(C)(C)C1(Cc2cc(F)ncc2Cl)CO1 (stereo not drawn)

Marked response:
1. 3.33^[a]
2. 2.03^[a]
3. 3.51^[a]
4. 3.65^[a]
